- Assay procedure: chemical genetic growth profiling, strain panel (AID 1159580);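 note: tested at 20 µM; growth read once vehicle control cultures reached saturation at 30 °C; 1 = growth at the plate median or of vehicle wells; lower values mean less growth of the strain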
- Measurement conditions: S. cerevisiae deletion strains, growth OD, locus YJL092W, strain hpr5, hits give low values
Screen size: about 5,500 compounds; about 2,000 (36%) were called active. Another 18% or so got no clear call; they are omitted. The list shows a part of the results.
Binary label based on normalized growth with cut-off 1: below gives y, not below gives n.

>  <Compound>
CC(=O)O[C@H]1CC[C@]2(C)C3CC[C@@]4(C)C(CC5O[C@@]6(CCC(C)CO6)[C@@H](C)C54)C3CC[C@@H]2C1 (stereo partly specified)

>  <Group label>
n

$$$$
>  <Compound>
CN1CCN(CCCN2c3ccccc3Sc3ccc(C(F)(F)F)cc32)CC1

>  <Group label>
y

$$$$
>  <Compound>
OCCN1CCN(CCCN2c3ccccc3Sc3ccc(C(F)(F)F)cc32)CC1

>  <Group label>
y

$$$$

----------
molecules and their reported normalized growth
- Assay procedure: chemical genetic growth profiling, strain panel (AID 1159580)
- Measurement conditions: S. cerevisiae deletion strains, growth OD, locus YNL153C, strain GIM3, hits give low values
Out of some 5,500 compounds screened, about 2,000 (36%) were called active. Another 18% or so got no clear call; they are omitted. The list shows a part of the results.

>  <Molecule>
CC(=O)OCC(=O)[C@@]12OC3(CCCC3)O[C@@H]1CC1C3CCC4=CC(=O)C=C[C@]4(C)[C@@]3(F)[C@@H](O)C[C@@]12C (stereo partly specified)

>  <normalized growth>
0.996

$$$$
>  <Molecule>
c1ccc([C@H]2CN3CCSC3=N2)cc1

>  <normalized growth>
0.988

$$$$
>  <Molecule>
C=CCn1c(COc2c(Br)cc(C)c3c2CCC3)n[nH]c1=S

>  <normalized growth>
0.975

$$$$
>  <Molecule>
CC(C)C1C2CCC(C2)C1N (stereo unspecified)

>  <normalized growth>
1.03

$$$$
>  <Molecule>
CC(C)(C)c1ccc(-c2cc(N)c(C(N)=O)s2)cc1

>  <normalized growth>
1

$$$$
>  <Molecule>
O=c1[nH]cnc2c1ncn2C1O[C@H](CO)[C@@H](O)[C@H]1O (stereo partly specified)

>  <normalized growth>
0.99

$$$$
>  <Molecule>
Cc1ccc(OCc2nnc(SCC(=O)c3ccc(F)cc3)n2-c2ccccc2)c2c1CCC2

>  <normalized growth>
0.989

$$$$
>  <Molecule>
NS(=O)(=O)c1ccc(-n2ncc3ccccc3c2=O)cc1

>  <normalized growth>
0.996

$$$$
>  <Molecule>
COc1cc2nc(-c3cccs3)oc(=O)c2cc1OC

>  <normalized growth>
0.971

$$$$
>  <Molecule>
CN(C)CCc1c[nH]c2ccc(CS(=O)(=O)N3CCCC3)cc12

>  <normalized growth>
0.995

$$$$
>  <Molecule>
CO[C@@]1(NC(=O)Cc2cccs2)C(=O)N2C(C(=O)O)=C(COC(N)=O)CS[C@@H]21

>  <normalized growth>
1.02

$$$$

----------
Listed here: items and their measured normalized growth.
- Assay procedure: chemical genetic growth profiling, strain panel (AID 1159580)
- Measurement conditions: S. cerevisiae deletion strains, growth OD, locus YKR001C, strain vps1, hits give low values
The whole screen tested about 5,500 compounds, of which about 2,000 (36%) were called active. About 18% were inconclusive and are not listed. The list shows a part of the results.

>  <Compound>
NC[C@H]1O[C@H](O[C@H]2[C@H](O)[C@@H](O[C@H]3O[C@H](CO)[C@@H](O)[C@H](N)[C@H]3O)[C@H](N)C[C@@H]2N)[C@H](N)C[C@@H]1O

>  <normalized growth>
0.968

$$$$
>  <Compound>
CN[C@@H]1[C@@H](O[C@H]2O[C@H](CO)[C@@H](N)[C@H](O)[C@H]2O)O[C@H]2C[C@@H](N)[C@H](O[C@H]3[C@H](O)[C@@H](O)[C@H](N)C[C@@H]3N)O[C@@H]2[C@@H]1O

>  <normalized growth>
0.989

$$$$
>  <Compound>
CNC(Cc1c[nH]c2ccccc12)C(=O)O (stereo not drawn)

>  <normalized growth>
1

$$$$

----------
- Assay procedure: chemical genetic growth profiling, strain panel (AID 1159580);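 note: tested at 20 µM; growth read once vehicle control cultures reached saturation at 30 °C; 1 = growth at the plate median or of vehicle wells; lower values mean less growth of the strain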
- Measurement conditions: S. cerevisiae deletion strains, growth OD, locus YDR195W, strain ref2
Hit rate of the full screen: of about 5,500 compounds, about 2,000 (36%) were called active. Not shown: some 18% with an inconclusive outcome. This is one part of the list. *1 amine or outer side, *2 acyl side, *3 side chain or, on linkers, in order; H or OH if unused. Where a SMILES comes first, the peptide text is derived from it. Bridges are numbered along the chain shown (N, C = ends). [ ]: non-standard residue; d: D form. The star is where a group is joined. ξ: configuration not given here. ΔAla(E,3-NHCONH2) = NC(=O)N/C=C(/N)C(=O)O; X2 = NC1=NCCC(C(N[*:1])C(=O)[*:2])N1; ξβ3hOrn = NCCCC(N)CC(=O)*; Orn = NCCC[CH](N)C(=O)O; Dap = NC[CH](N)C(=O)O
Readout label: normalized growth

>  <Compound>
COc1cc(-c2coc3cc(O[C@@H]4O[C@H](CO)[C@@H](O)[C@H](O)[C@H]4O)c(OC)c(O)c3c2=O)cc(O)c1OC

>  <Endpoint value>
0.939 (inactive)

$$$$
>  <Compound>
CC1=CC2C(C(C)C)CCC(C)(O)C2CC1 (stereo unspecified)

>  <Endpoint value>
1.03 (inactive)

$$$$
>  <Compound>
Cc1cc(C(C)(C)C)cc(C)c1CC1=NCCN1

>  <Endpoint value>
1.01 (inactive)

$$$$
>  <Compound>
NCCCC(N)CC(=O)NCC1NC(=O)C(CO)NC(=O)C(N)CNC(=O)C(C2CCN=C(N)N2)NC(=O)/C(=C\NC(N)=O)NC1=O (stereo not drawn) (H-[Dap]S[Dap](ξβ3hOrn)[ΔAla(E,3-NHCONH2)][X2]; lactam 1-C; configuration not given here)

>  <Endpoint value>
1.05 (inactive)

$$$$
>  <Compound>
Cc1cc(C(C)(C)C)c(O)c(C)c1CC1=NCCN1

>  <Endpoint value>
0.99 (inactive)

$$$$
>  <Compound>
CC(C)CC1NC(=O)C(CCCN)NC(=O)C(C(C)C)NC(=O)C2CCCN2C(=O)C(Cc2ccccc2)NC(=O)C(CC(C)C)NC(=O)C(CCCN)NC(=O)C(C(C)C)NC(=O)C2CCCN2C(=O)C(Cc2ccccc2)NC1=O (stereo unspecified) (cyclo(FPV[Orn]LFPV[Orn]L); configuration not given here)

>  <Endpoint value>
0.363 (active)

$$$$

----------
- Assay procedure: chemical genetic growth profiling, strain panel (AID 1159580);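 note: tested at 20 µM; growth read once vehicle control cultures reached saturation at 30 °C; 1 = growth at the plate median or of vehicle wells; lower values mean less growth of the strain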
- Measurement conditions: S. cerevisiae deletion strains, growth OD, locus YLR027C, strain aat2, hits give low values
Out of some 5,500 compounds screened, about 2,000 (36%) were called active. Inconclusive results (about 18%) are left out. The list shows a part of the results.
Collected normalized growth values appear next to each entry.
Readout label: normalized growth

>  <Compound>
c1ccc([C@H]2CN3CCSC3=N2)cc1

>  <Endpoint value>
0.99 (inactive)

$$$$
>  <Compound>
CC(=O)Oc1cc2c(c(C)c1OC(C)=O)CC1OC13C2(C)CCC1(C)C2CC(C)(C(=O)O)CCC2(C)CCC13C (stereo unspecified)

>  <Endpoint value>
1.01 (inactive)

$$$$
>  <Compound>
CN(C)C(=N)N=C(N)N

>  <Endpoint value>
0.991 (inactive)

$$$$
>  <Compound>
NCCc1c[nH]c2ccccc12

>  <Endpoint value>
0.974 (inactive)

$$$$
>  <Compound>
CC1=C(O)C(=O)C=C2C1=CC=C1[C@@]2(C)CC[C@@]2(C)[C@@H]3C[C@](C)(C(=O)O)CC[C@]3(C)CC[C@]12C

>  <Endpoint value>
0.502 (active)

$$$$
>  <Compound>
CNC(Cc1c[nH]c2ccccc12)C(=O)O (stereo unspecified)

>  <Endpoint value>
0.965 (inactive)

$$$$

----------
- Assay procedure: chemical genetic growth profiling, strain panel (AID 1159580);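 note: tested at 20 µM; growth read once vehicle control cultures reached saturation at 30 °C; 1 = growth at the plate median or of vehicle wells; lower values mean less growth of the strain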
- Measurement conditions: S. cerevisiae deletion strains, growth OD, locus YMR205C, strain PFK2, hits give low values
The whole screen tested about 5,500 compounds, of which about 2,000 (36%) were called active. Another 18% or so got no clear call; they are omitted. The list shows a part of the results.
Simple rule here: normalized growth less than 1 is YES, otherwise NO.

>  <Compound>
CN1CCN(CCC=C2c3ccccc3Sc3ccc(S(=O)(=O)N(C)C)cc32)CC1

>  <Group label>
YES

$$$$
>  <Compound>
CNS(=O)(=O)c1ccc(NC(=O)c2ccccc2C(=O)O)cc1

>  <Group label>
YES

$$$$
>  <Compound>
CCN(CC)CCNC(=O)c1cc(Cl)c(N)cc1OC

>  <Group label>
YES

$$$$
>  <Compound>
COc1cc(O)cc(OC)c1OC

>  <Group label>
YES

$$$$
>  <Compound>
COc1cc(/C=C/C(=O)N2CCC=CC2=O)cc(OC)c1OC

>  <Group label>
NO

$$$$
>  <Compound>
C[C@]12CCC3C(CC[C@H]4C[C@H](OS(=O)(=O)O)CC[C@]34C)C1CCC2=O (stereo not given in full)

>  <Group label>
NO

$$$$
>  <Compound>
COc1ccc2c(c1)[C@]13CCCC[C@H]1[C@H](C2)N(C)CC3

>  <Group label>
YES

$$$$
